Biological target: T1, His-human LIGHT (human)
T1 construct: also called His-huLIGHT; free LIGHT
T1 chain: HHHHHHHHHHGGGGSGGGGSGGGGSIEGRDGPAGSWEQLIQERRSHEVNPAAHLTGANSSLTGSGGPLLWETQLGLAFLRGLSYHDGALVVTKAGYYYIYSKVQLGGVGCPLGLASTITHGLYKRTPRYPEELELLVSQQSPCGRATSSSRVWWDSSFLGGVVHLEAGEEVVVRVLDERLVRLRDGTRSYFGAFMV
Assay: SPR, Biacore 8K, antibody on CM5 chip, human LIGHT
value.kind: Kd (nM)
Quick reminder: number only, in nM, skip the unit.

# binder, endpoint.value
records = [
    ("hum_LT-m37-9 (antibody, human IgG4, V domains shown, humanized from LT-m37) VH: QVQLVQSGAEVKKPGASVKVSCKASGYSFTGYFINWVRQAPGQSLEWIGRIYPYNVNTFYNQNFKGRATLTADKSTSTAYMELSSLRSEDTAVYYCGRGTHYYGSSGAMDYWGQGTLVTVSS VL: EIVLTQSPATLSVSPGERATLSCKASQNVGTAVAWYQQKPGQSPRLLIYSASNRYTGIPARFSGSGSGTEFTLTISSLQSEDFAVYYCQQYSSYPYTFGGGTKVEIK", 0.383),
    ("hum_LT-m37-5 (antibody, human IgG4, V domains shown, humanized from LT-m37) VH: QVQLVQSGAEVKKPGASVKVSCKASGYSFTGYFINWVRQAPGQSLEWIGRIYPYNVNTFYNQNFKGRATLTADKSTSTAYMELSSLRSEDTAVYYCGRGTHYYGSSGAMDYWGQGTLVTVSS VL: EIVMTQSPATLSVSPGERATLSCKASQNVGTAVAWYQQKPGQSPRLLIYSASNRYTGIPARFSGSGSGTEFTLTISSLQSEDFAVYFCQQYSSYPYTFGGGTKVEIK", 0.0575),
]

Okay, now this binder:
Write down Kd measured for item hum_LT-m37-7 (antibody, human IgG4, V domains shown, humanized from LT-m37) VH: QVQLVQSGAEVKKPGASVKVSCKASGYSFTGYFINWVRQAPGQGLEWIGRIYPYNVNTFYNQNFKGRATMTADKSTSTAYMELSSLRSEDTAVYYCGRGTHYYGSSGAMDYWGQGTLVTVSS VL: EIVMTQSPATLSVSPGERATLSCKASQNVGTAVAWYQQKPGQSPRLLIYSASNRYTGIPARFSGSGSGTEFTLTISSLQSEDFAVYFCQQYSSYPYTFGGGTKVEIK
0.041
